The measurements presented in this section are drawn from the METLIN SMRT retention time set (Domingo-Almenara et al. 2019).

- experiment_notes: gradient 5% acetonitrile 3 min, to 50% in 2 min, to 85% in 15 min, held 3 min, 100 µL/min
- condition_description: column: Zorbax Extend-C18 2.1 x 50 mm; eluents: water / acetonitrile, 0.1% formic acid
value_type: RP-LC retention time (s)

CC(CNC(=O)C1CCN(S(=O)(=O)c2ccc3c(c2)NC(=O)CO3)CC1)c1ccccc1 (configuration not stated) ... 792

A: COc1cccc(-n2cc(-c3nc(-c4ccccn4)no3)c3ccccc3c2=O)c1
B: Nc1ccc(-c2nc3nc(N)nc(N)c3nc2-c2ccc(N)cc2)cc1
input: Which value of RP-LC retention time is greater, the one for A or the one for B ? Reply with the label of the item you choose.
output: A

I: CCC(=O)NCc1nc2c(n1CC)CN(S(=O)(=O)c1cccc(F)c1)CC2
II: CC(C)CN1CCCCc2cc(C(=O)NC(C)(C)C)sc21
III: Cc1cc(-c2nnc(-c3ccccc3)o2)c(C)n1CC(=O)NC1CCCCC1
input: Sort by RP-LC retention time, descending. Sort the labels as requested; that list is your answer.
output: II, III, I
